Data provenance is PubChem BioAssay (NCI).

# ASSAY EXPLANATION: NCI Yeast Anticancer Drug Screen. Data for the bub3 strain (AID 167)
# PROTOCOL CONDITIONS: S. cerevisiae bub3 mutant strain, at 3.7 µM, stronger effect = higher value
The panel holds about 79,000 compounds, 15% with a hit somewhere; the sample as a whole holds those more often.
ENDPOINT: growth inhibition (%)
Your answer is read as %, so omit the unit and give the number.

O=C1OC(OC/C(Br)=C(\Br)COC2OC(=O)C(Cl)=C2Cl)C(Cl)=C1Cl (stereo not given) : -2
CN(C)c1nc(=Nc2cccc(Cl)c2)ss1 : 28
OC(CCNCc1ccccc1)c1ccc2ccccc2c1 (stereo not given) : 45
Cc1cc(C)nc(NS(=O)(=O)c2ccc(Nc3c4ccccc4nc4c(C(=O)NCCO)cccc34)cc2)n1 : 0
CN(C)CCNC(=O)c1cccc2c1Oc1c(cccc1[N+](=O)[O-])O2 : 31
CCOC(=O)/C(=C\c1ccc(C#N)cc1)C(C)=O : 3

Ask | Field request: growth inhibition | item: COc1cccc2c1C(=O)c1c(O)c3c(c(O)c1C2=O)CC(O)(C(O)CO)CC3OC1CC(N2CCOCC2)C(O)C(C)O1 (stereo not given)
Reply | 98

====

# ASSAY EXPLANATION: NCI Yeast Anticancer Drug Screen. Data for the rad18 strain (AID 177)
# PROTOCOL CONDITIONS: S. cerevisiae rad18 mutant growth inhibition; at 3.7 µM; stronger effect = higher value
About 79,000 compounds went through this panel and 15% of them were active in at least one assay; those are over-represented in the sample as a whole.
ENDPOINT: growth inhibition (%)
Reply with just the number (in %).

Consider the reported growth inhibition for these compounds:
CC(=O)SC(C[N+](=O)[O-])c1ccccc1 (centres undefined) : 33
CCOC(=O)c1ccc(NC(=O)O/N=C(/Cl)C(C)C)cc1 : -5

Ask | Given the entry COc1cccc2c1C(=O)c1c(O)c3c(c(O)c1C2=O)C[C@@](O)(C(C)=O)C[C@@H]3OC1CC(OC(C)=O)C(OC(C)=O)C(C)O1 (some centres undefined) , report its measured growth inhibition.
Reply | -29

Ask | Would you mind doing "COc1cc([C@@H]2c3cc4c(cc3[C@@H](Nc3ccc(NC(=O)c5cc([N+](=O)[O-])cn5C)cc3)[C@H]3COC(=O)[C@H]23)OCO4)cc(OC)c1O" as well?
Reply | 3

Ask | Same read-out for "CCCC/C([O-])=C1/C(=O)N(c2ccccc2)N=C1C.CCCC/C([O-])=C1/C(=O)N(c2ccccc2)N=C1C.[Cu+2]" ?
Reply | -4

Ask | What do you get for "OCC(CO)C(c1cccc2ccccc12)c1cccc2ccccc12" ?
Reply | 53

====

# ASSAY EXPLANATION: NCI Yeast Anticancer Drug Screen. Data for the bub3 strain (AID 167)
# PROTOCOL CONDITIONS: S. cerevisiae bub3 mutant strain, at 11.0 µM, stronger effect = higher value
Compounds without any hit were thinned out: in the full panel of roughly 79,000, 15% have a hit.
// FALSE strictly below 50% in growth inhibition; TRUE otherwise

COC1=C(N)C(=O)c2nc(-c3nc(C(=O)O)c(C)c(-c4ccc(OC)c(OC)c4O)c3N)ccc2C1=O : TRUE

Ask | Given the entry "O=c1[nH]c2ccc(Cl)cc2o1" , answer whether its growth inhibition meets or surpasses 50%.
Reply | FALSE
